As shown below, each of these compounds has a reported Growth Rate value.
Tested on: Fibroblast
Assay: Incucyte cell viability with human fibroblast; also: filed as whole numbers so only -1 and 0 and 1 occur
Assay type: toxicity, cell-based
Settings: 24 h, 10 µM, compound concentration 10 uM, replicate number 1, timepoint 24 hours
Write the number on its own, no unit after it.

query: # get_value(readout='Growth Rate', item= O=C1c2ccc(Nc3ccc(F)cc3F)cc2CCc2ccc(OC[C@H](O)CO)cc21 [Skepinone-L] )
result: 0

query: // query Growth Rate value for entry O=C(O)[C@H]1[C@H](Cn2nnc3ccccc3c2=O)CC[C@@H]1C(=O)c1ccc(OCCC2CCOCC2)cc1
result: 1

query: Requested read-out: Growth Rate. Entry: CCCCN(CC)c1nc(C)nc2c1c(C)cn2-c1c(C)cc(C)cc1C.Cl
result: 0
